growth inhibition values, listed per item
- Assay details: NCI Yeast Anticancer Drug Screen. Data for the mec2-1 strain (AID 157)
- Settings: S. cerevisiae mec2-1 strain, at 50.0 µM, active compounds read high
Compounds without any hit were thinned out: in the full panel of roughly 79,000, 15% have a hit.
Outcome measure: growth inhibition (%)

>>> assay_value("Cc1ccc2c(c1)C1(C)c3cc(C)ccc3SP1S2 (stereo not given)")
40.1
>>> assay_value("CCOC(=O)N(C(=O)c1ccc([As]=O)cc1)C(=O)c1ccc([As]=O)cc1 (stereo not given)")
99.3
>>> assay_value("Oc1ccc2ccccc2c1O")
50.9
>>> assay_value("O=S(=O)(c1ccccc1)N1C2C3CCC(CC3)C21 (stereo not given)")
2.75
>>> assay_value("CC12CCC3C(CCC4CC(N5CCCCC5)=CCC43C)C1CCC2O (stereo not given)")
89.4
>>> assay_value("O=[N+]([O-])c1cc2c([N+](=O)[O-])cccc2o1")
99.7
>>> assay_value("Ic1cccc2c1[se]c1ccccc12")
-4.05
>>> assay_value("OCC(O)C(O)CO (stereo not given) (tested in a mixture with another compound)")
32.4
>>> assay_value("O=S(=O)(O)c1ccc(Cl)cc1.[Cd]")
39.4
>>> assay_value("FC(F)(F)C1(C(F)(F)F)O[Te]2(OC1(C(F)(F)F)C(F)(F)F)OC(C(F)(F)F)(C(F)(F)F)C(C(F)(F)F)(C(F)(F)F)O2")
96.3
>>> assay_value("CCCOc1ccc(/C=C/[N+](=O)[O-])cc1N")
99.5
>>> assay_value("[Pt].c1ccc(P(CCP(c2ccccc2)c2ccccc2)CCP(c2ccccc2)c2ccccc2)cc1")
85.2
>>> assay_value("Cc1ccc2nc3sc(=O)sc3nc2c1")
93.8
>>> assay_value("CC1CN1C1=C(F)C(=O)C(N2CC2C)=C(F)C1=O (stereo not given)")
94
>>> assay_value("CC(C)c1cccc(C(C)C)c1NC(=O)C(=O)CC(=O)CC(c1ccccc1)c1c(O)c2ccccc2oc1=O (stereo not given)")
43
>>> assay_value("CCCCCCCCCCCCCCCc1cccc(O)c1O")
92.1
>>> assay_value("c1cc[c]([Sn]([c]2ccccc2)([c]2ccccc2)[CH]2CCCCC2)cc1")
97.2
>>> assay_value("C=CO/C(C)=C(\\[Se]c1ccccc1)C(C)=O")
85.9
>>> assay_value("ClCc1nc2ccccc2[nH]1")
20.5
>>> assay_value("CC(C)(c1ccccc1)c1ccc(O)cc1")
99
>>> assay_value("O=C1C(F)=C(N2CC2)C(=O)C(F)=C1N1CC1")
94
>>> assay_value("ClC1=NSSC1(Cl)Cl")
92.5
>>> assay_value("CCOc1c(Br)cc(/C=C/[N+](=O)[O-])cc1OC")
75.5
>>> assay_value("CCCCCCCCCCCCN=C(N)N")
99.3
>>> assay_value("C[N+](C)(C)CC1CCCC(C[N+](C)(C)C)C1=O (stereo not given)")
99.8

###

- Assay details: NCI Yeast Anticancer Drug Screen. Data for the mlh1 rad18 strain (AID 175)
- Settings: S. cerevisiae mlh1 rad18 strain growth inhibition; at 50.0 µM (retest, dose inferred, filed as 5.0)
About 79,000 compounds went through this panel and 15% of them were active in at least one assay; those are over-represented in the sample as a whole. Active and inactive are the calls of the source. No stated cut-off is given here; in the data, active means growth inhibition above about 70%; inactive means the rest.
Labels: active, inactive

>>> assigned_class("CC(Cc1ccccc1)N(C)Cc1ccc(-c2ccc(Cl)cc2)o1 (stereo not given)")
"active"
>>> assigned_class("COc1cc(C=Nc2cc[c]([Hg][O]C(C)=O)cc2)ccc1O")
"inactive"
>>> assigned_class("CCOP(=O)(Cc1cccc2ccccc12)OCC")
"inactive"
>>> assigned_class("Br[C](Br)(Br)[Hg][c]1ccccc1")
"active"
>>> assigned_class("Cc1cccc(NC(=O)CBr)c1")
"active"
>>> assigned_class("COc1cc(C2c3cc4c(cc3[C@@H](Nc3ccc(F)cc3)C3COC(=O)[C@H]23)OCO4)cc(OC)c1O (stereo not given in full)")
"active"
>>> assigned_class("COc1cc(C[C@H]2c3cc(OC)c(OC)c(O)c3CCN2C)c(Oc2cc3c(cc2OC)-c2c(OC)c(OC)c(OC)c4c2C(C3)N(C)CC4)cc1OC (stereo not given in full) (tested in a mixture with another compound)")
"active"
>>> assigned_class("Cc1nc2ccccc2cc1C[N+]12CN3CN(CN(C3)C1)C2")
"inactive"
>>> assigned_class("O=c1oc2ccccc2c(O)c1C(c1ccc2c(c1)Cc1ccccc1-2)c1c(O)c2ccccc2oc1=O")
"inactive"
>>> assigned_class("CCC(=O)OC1CCn2c1nc1c2C(=O)C(C)=C(N2CC2)C1=O (stereo not given)")
"active"
